Cited source for all entries: patent US20260248922A1

stated conditions: rabbit, 8 h
Outcome: Satisfied for The cumulative amount of test compounds of at least 0.003 mg; Not satisfied for anything lower.

[
  {
    "compound": "CN(C)C(=O)CCS[C@H](SCCC(=O)O)c1cccc(/C=C/c2ccc3ccc(Cl)cc3n2)c1",
    "group label": "Not satisfied"
  }
]

Query: Decide: The cumulative amount of test compounds of CCCc1c(OCCCS(=O)(=O)c2ccc(C(=O)CCC(=O)OCC3CCCN3)cc2)ccc(C(C)=O)c1O.Cl (stereo not shown) >= 0.003 mg?
Result: Satisfied

Query: Decide: The cumulative amount of test compounds of CCN(CC)CCOC(=O)CC1(CS[C@H](CCc2ccccc2C(C)(C)O)c2cccc(C=Cc3ccc4ccc(Cl)cc4n3)c2)CC1.Cl >= 0.003 mg?
Result: Satisfied

Query: Decide: The cumulative amount of test compounds of CCCc1c(OCCCS(=O)(=O)c2ccc(C(=O)CCC(=O)O)cc2)ccc(C(C)=O)c1O >= 0.003 mg?
Result: Not satisfied

Query: Decide: The cumulative amount of test compounds of O=C(O)C(c1ccc(OCc2ccc3ccccc3n2)cc1)C1CCCC1 (stereo not shown) >= 0.003 mg?
Result: Not satisfied

Query: Decide: The cumulative amount of test compounds of Cl.O=C(OCC1CCCN1)C(c1ccc(OCc2ccc3ccccc3n2)cc1)C1CCCC1 (stereo not shown) >= 0.003 mg?
Result: Satisfied

Query: Decide: The cumulative amount of test compounds of CN(C)C(=O)CCSC(SCCC(=O)OCC1CCCN1)c1cccc(/C=C/c2ccc3ccc(Cl)cc3n2)c1.Cl (stereo not shown) >= 0.003 mg?
Result: Satisfied

----------
stated conditions: rabbit, 2 h
Assignment: determine reported The cumulative amount of test compounds for the given compounds.
One number for each entry, in mg.

[
  {
    "compound": "CN(C)C(=O)CCSC(SCCC(=O)OCC1CCCN1)c1cccc(/C=C/c2ccc3ccc(Cl)cc3n2)c1.Cl (stereo not shown)",
    "The cumulative amount of test compounds (mg)": 1.01
  },
  {
    "compound": "CC(c1cc2ccccc2s1)N(O)C(N)=O (stereo not shown)",
    "The cumulative amount of test compounds (mg)": 0.001
  },
  {
    "compound": "CCN(CC)CCOC(=O)CC1(CS[C@H](CCc2ccccc2C(C)(C)O)c2cccc(C=Cc3ccc4ccc(Cl)cc4n3)c2)CC1.Cl",
    "The cumulative amount of test compounds (mg)": 0.78
  }
]

Please state The cumulative amount of test compounds for every compound in the list that follows.
1. O=C(O)C(c1ccc(OCc2ccc3ccccc3n2)cc1)C1CCCC1 (stereo not shown)
2. CCCc1c(OCCCS(=O)(=O)c2ccc(C(=O)CCC(=O)OCC3CCCN3)cc2)ccc(C(C)=O)c1O.Cl (stereo not shown)

Result:
1. 0.001
2. 1.02

Please state The cumulative amount of test compounds for every compound in the list that follows.
1. CC(C)c1ccc2c(c1)c(SC(C)(C)C)c(CC(C)(C)C(=O)O)n2Cc1ccc(Cl)cc1
2. CCCc1c(OCCCS(=O)(=O)c2ccc(C(=O)CCC(=O)O)cc2)ccc(C(C)=O)c1O
3. O=C(O)Cc1ccccc1Nc1c(Cl)cccc1Cl
4. Cl.O=C(OCC1CCCN1)C(c1ccc(OCc2ccc3ccccc3n2)cc1)C1CCCC1 (stereo not shown)

Result:
1: 0.001; 2: 0.001; 3: 0.001; 4: 1.03

Query: Need The cumulative amount of test compounds of CN(C)C(=O)CCS[C@H](SCCC(=O)O)c1cccc(/C=C/c2ccc3ccc(Cl)cc3n2)c1 , thanks.
Result: 0.001

----------
stated conditions: rabbit, 4 h
value type: The cumulative amount of test compounds (mg)
Answers are plain numbers, in mg.

Please state The cumulative amount of test compounds for every molecule in the list that follows.
1. CC(c1cc2ccccc2s1)N(O)C(N)=O (stereo not shown)
2. CC(C)c1ccc2c(c1)c(SC(C)(C)C)c(CC(C)(C)C(=O)O)n2Cc1ccc(Cl)cc1
3. O=C(O)Cc1ccccc1Nc1c(Cl)cccc1Cl
4. CCCc1c(OCCCS(=O)(=O)c2ccc(C(=O)CCC(=O)O)cc2)ccc(C(C)=O)c1O

Result:
1. 0.001
2. 0.001
3. 0.002
4. 0.001

Please state The cumulative amount of test compounds for every molecule in the list that follows.
1. O=C(O)C(c1ccc(OCc2ccc3ccccc3n2)cc1)C1CCCC1 (stereo not shown)
2. CCCc1c(OCCCS(=O)(=O)c2ccc(C(=O)CCC(=O)OCC3CCCN3)cc2)ccc(C(C)=O)c1O.Cl (stereo not shown)
3. Cl.O=C(OCC1CCCN1)C(c1ccc(OCc2ccc3ccccc3n2)cc1)C1CCCC1 (stereo not shown)
4. CN(C)C(=O)CCSC(SCCC(=O)OCC1CCCN1)c1cccc(/C=C/c2ccc3ccc(Cl)cc3n2)c1.Cl (stereo not shown)
5. CN(C)C(=O)CCS[C@H](SCCC(=O)O)c1cccc(/C=C/c2ccc3ccc(Cl)cc3n2)c1
6. CCN(CC)CCOC(=O)CC1(CS[C@H](CCc2ccccc2C(C)(C)O)c2cccc(C=Cc3ccc4ccc(Cl)cc4n3)c2)CC1.Cl

Result:
[0.001, 2.18, 2.10, 2.09, 0.001, 1.77]

----------
System: LPS-induced fever
test protocol: Antipyretic activity, fever induced by LPS in rats
Assay type: in vivo, Sprague Dawley rats
stated conditions: T = 0 min (2 hours after LPS challenge); transdermal, 20 mg/kg
Assignment: determine reported body temperature (Mean) for the given molecules.
One number for each entry.

Sample answers from the record:
[
  {
    "molecule": "CC(C(=O)OCC1CCCN1)c1ccc(-c2ccccc2)c(F)c1.Cl (stereo not shown)",
    "body temperature (Mean)": 38.30
  },
  {
    "molecule": "Cl.O=C(Cc1ccccc1Nc1c(Cl)cccc1Cl)OCC1CCCN1 (stereo not shown)",
    "body temperature (Mean)": 38.38
  },
  {
    "molecule": "CCN(CC)CCOC(=O)C(C)c1ccc(CC(C)C)cc1.Cl (stereo not shown)",
    "body temperature (Mean)": 38.31
  }
]

# next molecule below
Query: Need body temperature (Mean) of COc1ccc2cc(C(C)C(=O)OCC3CCCN3)ccc2c1.Cl (stereo not shown) , thanks.
Result: 38.30

----------
stated conditions: rabbit, 1 h
value type: The cumulative amount of test compounds (mg)
Answers are plain numbers, in mg.

[
  {
    "compound": "CCN(CC)CCOC(=O)CC1(CS[C@H](CCc2ccccc2C(C)(C)O)c2cccc(C=Cc3ccc4ccc(Cl)cc4n3)c2)CC1.Cl",
    "value type": "The cumulative amount of test compounds",
    "units label": "mg",
    "reported measurement": 0.36
  }
]

Please state The cumulative amount of test compounds for every compound in the list that follows.
1. CN(C)C(=O)CCSC(SCCC(=O)OCC1CCCN1)c1cccc(/C=C/c2ccc3ccc(Cl)cc3n2)c1.Cl (stereo not shown)
2. CN(C)C(=O)CCS[C@H](SCCC(=O)O)c1cccc(/C=C/c2ccc3ccc(Cl)cc3n2)c1
3. Cl.O=C(OCC1CCCN1)C(c1ccc(OCc2ccc3ccccc3n2)cc1)C1CCCC1 (stereo not shown)
4. CCCc1c(OCCCS(=O)(=O)c2ccc(C(=O)CCC(=O)OCC3CCCN3)cc2)ccc(C(C)=O)c1O.Cl (stereo not shown)

Result:
1. 0.46
2. 0.001
3. 0.52
4. 0.50

Please state The cumulative amount of test compounds for every compound in the list that follows.
1. CC(c1cc2ccccc2s1)N(O)C(N)=O (stereo not shown)
2. CC(C)c1ccc2c(c1)c(SC(C)(C)C)c(CC(C)(C)C(=O)O)n2Cc1ccc(Cl)cc1

Result:
0.001
0.001

----------
Assignment: determine reported The cumulative amount of test compounds for the given compounds.
stated conditions: rabbit, 8 h
Give bare numbers, in mg.

Sample answers from the record:
[
  {
    "compound": "O=C(O)Cc1ccccc1Nc1c(Cl)cccc1Cl",
    "The cumulative amount of test compounds / mg": 0.003
  },
  {
    "compound": "CC(c1cc2ccccc2s1)N(O)C(N)=O (stereo not drawn)",
    "The cumulative amount of test compounds / mg": 0.003
  }
]

Query: Need The cumulative amount of test compounds of CC(C)c1ccc2c(c1)c(SC(C)(C)C)c(CC(C)(C)C(=O)O)n2Cc1ccc(Cl)cc1 , thanks.
Result: 0.003
